Recorded MIC by entry
Tested on: Candida albicans
test: Antifungal activity against Candida albicans ATCC 66027 after 16 to 18 hr by Kirby-Bauer disk diffusion method
Format: functional
Entry rule: numbers only, all in µg/mL.

{"columns": ["compound", "metric", "assay_value"],
 "data": [
  ["O=C(/C=C/c1ccc(O)cc1)c1cc2c(ccc3ccccc32)oc1=O", "MIC", 200]
]}

Check the records and state MIC for O=C(/C=C/c1ccc([N+](=O)[O-])cc1)c1cc2c(ccc3ccccc32)oc1=O
200

Check the records and state MIC for O=C(/C=C/c1cccc(O)c1)c1cc2c(ccc3ccccc32)oc1=O
200

Check the records and state MIC for O=C(/C=C/c1ccccc1)c1cc2c(ccc3ccccc32)oc1=O
400

Check the records and state MIC for OC(Cn1cncn1)(Cn1cncn1)c1ccc(F)cc1F [FLUCONAZOLE]
10

Check the records and state MIC for O=C(/C=C/c1ccc(Cl)cc1)c1cc2c(ccc3ccccc32)oc1=O
200

Check the records and state MIC for O=C(/C=C/c1ccccc1[N+](=O)[O-])c1cc2c(ccc3ccccc32)oc1=O
400
